Value source: the supplement of paper PMC10567573

B1: PTPRD (parent)
chain: ITWFKDFLPVDTSNNNGRIKQLRS

Variants of: B1
Experiment: protein stability index of a GFP-peptide fusion (GPS, HEK-293T) (PSI 1-6); higher = more stable;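 note: lentivirally expressed fusions sorted by FACS into six bins by GFP to DsRed ratio, PSI derived from sequencing read proportions per bin multiplied by bin number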
Details: c terminus: a fixed tail appended
variants and their reported protein stability index

record.sequence: ITWFKDFLPVDPSNNNGRIKQLRS
protein stability index: 2.03
//
record.sequence: ITWFKDFLPVDTSNNNGRIKCLRS
protein stability index: 1.52
//
record.sequence: ITWFKDFLPVDTSNNNGKIKQLRS
protein stability index: 1.68
//
record.sequence: ITWFKDFLPVDTSNTNGRIKQLRS
protein stability index: 3.44
//
record.sequence: LTWFKDFLPVDTSNNNGRIKQLRS
protein stability index: 2.33
//
record.sequence: ITWFKDFLPVDTSNNNHRIKQLRS
protein stability index: 1.37
//
record.sequence: ITWFKDFLPWDTSNNNGRIKQLRS
protein stability index: 2.62
//
record.sequence: ITWFKDFLPVDTSNNNGRIMQLRS
protein stability index: 1.55
//
record.sequence: ITWFKDFLPVDTSNNNGRIKQLRA
protein stability index: 1.96
//
record.sequence: ITWFKTFLPVDTSNNNGRIKQLRS
protein stability index: 1.6
//
record.sequence: ITWFKDTLPVDTSNNNGRIKQLRS
protein stability index: 2.38
//
record.sequence: ITWFKDFLPRDTSNNNGRIKQLRS
protein stability index: 1.82
//
record.sequence: ITWFKDFLPVDTSNNNGEIKQLRS
protein stability index: 1.87
//
record.sequence: ITWFKDFLPVDTSNNNGRIKQLKS
protein stability index: 2.55
//
record.sequence: ITWFKDFLPVDSSNNNGRIKQLRS
protein stability index: 1.94
//
record.sequence: ITTFKDFLPVDTSNNNGRIKQLRS
protein stability index: 3.3
//
record.sequence: ITWFKDFLPVDTSNKNGRIKQLRS
protein stability index: 2.54
//
record.sequence: ITWFKDFPPVDTSNNNGRIKQLRS
protein stability index: 1.96
//
record.sequence: ITWFKDQLPVDTSNNNGRIKQLRS
protein stability index: 2.05
//
record.sequence: ITWFKDFLPVVTSNNNGRIKQLRS
protein stability index: 1.86
//
record.sequence: ITWFKDFLPVDTSNNNGRQKQLRS
protein stability index: 2.57
//
record.sequence: ITWFKDFLPVDVSNNNGRIKQLRS
protein stability index: 2.42
//
record.sequence: ITWFKDFLPVDTSNNNGRDKQLRS
protein stability index: 2.08
//
record.sequence: ITWFKDFLPVDTSNNNGRTKQLRS
protein stability index: 2.23
//
record.sequence: ITWKKDFLPVDTSNNNGRIKQLRS
protein stability index: 2.37
//
record.sequence: ITWFKDFLPVHTSNNNGRIKQLRS
protein stability index: 1.73
//
record.sequence: ILWFKDFLPVDTSNNNGRIKQLRS
protein stability index: 1.41
//
record.sequence: ITWFKDFLPVDTSNNNGRIIQLRS
protein stability index: 1.31
//
record.sequence: ITWFKDFLPVDTSNNNGRIKQPRS
protein stability index: 1.63
//
record.sequence: ITWFKDFLPHDTSNNNGRIKQLRS
protein stability index: 2.07
//
record.sequence: ITWTKDFLPVDTSNNNGRIKQLRS
protein stability index: 2.03
